test: plasmodial surface anion channel blockers, osmotic lysis – cell-based, P. falciparum Indochina, OD700, 2 h, primary screen (AID 1155);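 note: lysis reports solute entry through the parasite surface anion channel PSAC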; details: P. falciparum Indochina infected erythrocytes, higher = more signal, called active from +8 up or from −8 down

- COMPOUND: "COc1cc(NN2C(C(O)c3ccc(N(C)C)cc3)C=CC3C(=O)N(c4ccccc4)C(=O)C32)cc(OC)c1OC (configuration not stated)"
  z-score: -0.891
- COMPOUND: "C=CCC(OC(C)=O)[C@@H]1[C@@H](N(Cc2cccc3ccccc23)C(=O)Cc2ccc(OC)cc2)c2cc(OCCCO)ccc2N1C(=O)c1ccc(-c2ccccc2)cc1 (some centres not stated)"
  z-score: 0.299
- COMPOUND: "C=CCC(OC(C)=O)[C@@H]1[C@@H](N(Cc2ccc(-c3cccc(C(F)(F)F)c3)o2)C(=O)Cc2ccc(OC)cc2)c2cc(OCCCO)ccc2N1C(=O)c1ccc(-c2ccccc2)cc1 (some centres not stated)"
  z-score: -0.393
- COMPOUND: "C=CCNC(=O)[C@@H]1[C@H]2C(=O)O[C@H](c3ccccc3)[C@H](c3ccccc3)N2[C@H](c2ccc(OCCO)cc2)[C@@]12C(=O)N(C(=O)OCCOC)c1ccc(C#Cc3ccc(OC)cc3)cc12"
  z-score: 1.28
- COMPOUND: "CS(=O)(=O)CCOC(=O)C1=CC(c2ccc(CO)cc2)=CC(C2CC2)N(Cc2sc3ccccc3c2Cl)C=C1C(=O)OCCS(C)(=O)=O (configuration not stated)"
  z-score: 3.35
- COMPOUND: "COc1ccc([Si](C)(C)[C@H]2[C@H](CC(=O)N(CCO)Cc3ccccc3)O[C@@]3(C(=O)N(C)c4c(Br)cc(C)cc43)[C@@H]2C)cc1"
  z-score: 3.21
- COMPOUND: "COC(=O)C1=CC(CCCO)=CC(c2cccs2)N(C)C=C1C(=O)OC (configuration not stated)"
  z-score: 0.596
